- method_description: In vitro binding affinity at Sigma opioid receptors on guinea pig brain membranes by [3H]3-PPP displacement.
quantity_measured: log10(IC50) (log10 of the value in nM)
A value of 2 here means IC50 of 100 in nM, since values are log10.

Example entries and their recorded answers appear below.
CCCCCCC(Cc1ccc(OC)c(OCCc2ccccc2)c1)N(CCC)CCC (stereo not drawn); 2.18
CCCNC(CC)Cc1ccc(OC)c(OCCc2ccccc2)c1 (stereo not drawn); 0.90
CCCN(CCC)C(C)Cc1ccc(OC)c(OCCc2ccccc2)c1 (stereo not drawn); 1.08

For the compound shown here, CCCCC(Cc1ccc(OC)c(OCCc2ccccc2)c1)N(CCC)CCC (stereo not drawn) , give the reported log10(IC50).
1.46

For the compound shown here, CCCCC(N)Cc1ccc(OC)c(OCCc2ccccc2)c1 (stereo not drawn) , give the reported log10(IC50).
2.20

For the compound shown here, CCCCCCCC(N)Cc1ccc(OC)c(OCCc2ccccc2)c1 (stereo not drawn) , give the reported log10(IC50).
2.62

For the compound shown here, CCCC(Cc1ccc(OC)c(OCCc2ccccc2)c1)N(CCC)CCC (stereo not drawn) , give the reported log10(IC50).
0.98

For the compound shown here, CCCCCCCCC(Cc1ccc(OC)c(OCCc2ccccc2)c1)NCCC (stereo not drawn) , give the reported log10(IC50).
2.23

For the compound shown here, CCCCCCC(Cc1ccc(OC)c(OCCc2ccccc2)c1)NCCC (stereo not drawn) , give the reported log10(IC50).
0.95

For the compound shown here, CCCCCCCC(Cc1ccc(OC)c(OCCc2ccccc2)c1)N(CCC)CCC (stereo not drawn) , give the reported log10(IC50).
2.36

For the compound shown here, CCCCCCC(N)Cc1ccc(OC)c(OCCc2ccccc2)c1 (stereo not drawn) , give the reported log10(IC50).
2.23

For the compound shown here, CCCCCC(Cc1ccc(OC)c(OCCc2ccccc2)c1)NCCC (stereo not drawn) , give the reported log10(IC50).
0.18

For the compound shown here, CCCNC(C)Cc1ccc(OC)c(OCCc2ccccc2)c1 (stereo not drawn) , give the reported log10(IC50).
1.00

For the compound shown here, CCCCCC(N)Cc1ccc(OC)c(OCCc2ccccc2)c1 (stereo not drawn) , give the reported log10(IC50).
2.04
